# Experimental system: T1, recombinant cynomolgus GPC3 (glypican-3) (cynomolgus monkey, UniProt A0A2K5VK50 24-558)
# T1 construct: also called cynoGPC3
# Test method notes: SPR; Kd on human GPC3 divided by Kd on cynomolgus GPC3
Each entry below carries its recorded Kd Fold difference (hu/cyno).

See these solved cases before continuing.
v40203, H18L6_LC_G34D mAb (antibody, human IgG1, kappa, V domains shown) VH: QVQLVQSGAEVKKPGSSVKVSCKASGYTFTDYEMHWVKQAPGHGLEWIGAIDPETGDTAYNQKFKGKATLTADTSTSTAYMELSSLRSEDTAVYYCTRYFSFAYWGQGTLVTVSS VL: EIVLTQSPATLSLSPGERATISCRSSQSLRHSNDNTYLQWYQQKPGQAPRLLIYKVSNRFSGVPARFSGSGSGTDFTLTISSLEPEDFAVYFCYQSKHVPYTFGGGTKVEIKR: 1.2 fold
v40206, H18L6_LC_G34R mAb (antibody, human IgG1, kappa, V domains shown) VH: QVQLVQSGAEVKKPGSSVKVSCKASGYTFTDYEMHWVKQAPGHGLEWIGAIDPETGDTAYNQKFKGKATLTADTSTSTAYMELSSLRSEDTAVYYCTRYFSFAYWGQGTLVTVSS VL: EIVLTQSPATLSLSPGERATISCRSSQSLRHSNRNTYLQWYQQKPGQAPRLLIYKVSNRFSGVPARFSGSGSGTDFTLTISSLEPEDFAVYFCYQSKHVPYTFGGGTKVEIKR: 1.55 fold

[Q] Which Kd Fold difference (hu/cyno) value belongs to v40218, H18L6_LC_N33H mAb (antibody, human IgG1, kappa, V domains shown, no number given for this variant) VH: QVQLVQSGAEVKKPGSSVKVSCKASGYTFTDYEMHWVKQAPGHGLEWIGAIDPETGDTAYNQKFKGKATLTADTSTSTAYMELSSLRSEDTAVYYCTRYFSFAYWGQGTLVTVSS VL: EIVLTQSPATLSLSPGERATISCRSSQSLRHSHGNTYLQWYQQKPGQAPRLLIYKVSNRFSGVPARFSGSGSGTDFTLTISSLEPEDFAVYFCYQSKHVPYTFGGGTKVEIKR ?
[A] 2.1 fold
